What 0 linker (unconjugated protein) was measured for each of the following?
experiment: Stability of linkers L1-L4 conjugated to FGF21 (LC-MS); format: physicochemical; conditions: +4° C., 168 hrs
One number for each entry, in %.

Guide cases for 0 linker (unconjugated protein), answers given:
INSERT INTO results (molecule, recorded_number) VALUES
  ('L3-FGF21ΔH-A129C: Linker-3 conjugated to FGF21ΔH-A129C protein (Table 4; Table 5 row L3) (conjugate, UniProt Q9NSA1 29-209, looked up, variant H1* A129C, Linker-3 attached) Fibroblast growth factor 21: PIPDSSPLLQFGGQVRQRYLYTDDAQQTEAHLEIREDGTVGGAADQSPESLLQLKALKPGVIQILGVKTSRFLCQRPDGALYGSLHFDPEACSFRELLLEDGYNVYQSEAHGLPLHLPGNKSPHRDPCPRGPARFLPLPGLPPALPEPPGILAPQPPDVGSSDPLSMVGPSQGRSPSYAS', 19),
  ('L1-FGF21ΔH-A129C: Linker-1 conjugated to FGF21ΔH-A129C protein (Table 4; Table 5 row L1) (conjugate, UniProt Q9NSA1 29-209, looked up, variant H1* A129C, Linker-1 attached) Fibroblast growth factor 21: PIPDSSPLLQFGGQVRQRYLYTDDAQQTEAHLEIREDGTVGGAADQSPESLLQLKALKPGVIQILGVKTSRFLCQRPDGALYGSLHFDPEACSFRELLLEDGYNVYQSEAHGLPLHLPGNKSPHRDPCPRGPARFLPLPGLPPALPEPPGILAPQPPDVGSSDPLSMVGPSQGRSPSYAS', 10),
  ('L2-FGF21ΔH-A129C: Linker-2 conjugated to FGF21ΔH-A129C protein (Table 4; Table 5 row L2) (conjugate, UniProt Q9NSA1 29-209, looked up, variant H1* A129C, Linker-2 attached) Fibroblast growth factor 21: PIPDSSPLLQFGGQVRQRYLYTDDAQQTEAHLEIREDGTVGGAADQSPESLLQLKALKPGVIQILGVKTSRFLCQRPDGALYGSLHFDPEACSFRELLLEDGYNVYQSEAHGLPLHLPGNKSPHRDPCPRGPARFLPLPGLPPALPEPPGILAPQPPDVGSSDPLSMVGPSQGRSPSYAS', 24);

// field: 0 linker (unconjugated protein); key: L4-FGF21ΔH-A129C: Linker-4 conjugated to FGF21ΔH-A129C protein (Table 4; Table 5 row L4) (conjugate, UniProt Q9NSA1 29-209, looked up, variant H1* A129C, Linker-4 attached) Fibroblast growth factor 21: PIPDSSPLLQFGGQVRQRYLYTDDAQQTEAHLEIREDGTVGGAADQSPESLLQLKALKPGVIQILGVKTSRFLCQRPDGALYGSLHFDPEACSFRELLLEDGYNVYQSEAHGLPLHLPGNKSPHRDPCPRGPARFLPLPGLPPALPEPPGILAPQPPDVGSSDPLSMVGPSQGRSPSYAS ; value = 21

Values compiled from patent US8722622B2.
